A compilation of pIC50 values for Protein deacetylase HDAC6 (Homo sapiens) from the published literature.
Notebook: values listed as pIC50 are -log10 of the concentration (mol/L).

Q: Record lookup: for Protein deacetylase HDAC6 (Homo sapiens), what pIC50 belongs to CC(C)Oc1ccc(C(C)(C)O)cc1-c1cn(C)c(=O)c2[nH]c(C(=O)NCCCCCCC(=O)NO)cc12 ?
Ans: 8.27

Q: Missing value: pIC50, Protein deacetylase HDAC6 (Homo sapiens), entry CCN(CCc1ccc2c(c1)OCO2)Cc1ccc(/C=C/C(=O)NO)o1 . Fill in?
Ans: 6.32

Q: Return pIC50 measured with Protein deacetylase HDAC6 (Homo sapiens) given this molecule: C[C@H](CCCCC(=O)Nc1ccccc1N)[C@H]1CC[C@H]2/C(=C/C=C3C[C@@H](O)C[C@H](O)C3)CCC[C@]12C
Ans: 4.09

Q: Lab note: need pIC50 for COc1ccccc1-c1ccc(C(=O)C(F)(F)F)s1 on Protein deacetylase HDAC6 (Homo sapiens), anyone have it?
Ans: 5.20

Q: Item: O=C1CC[C@H](C(=O)N[C@H](CCCCCS)C(=O)Nc2ccccc2)N1 Test system: Protein deacetylase HDAC6 (Homo sapiens) Read-out: pIC50 Value: ?
Ans: 7.68

Q: Please tell me: pIC50 of Cc1cc(-c2nc3sc4c(c3c(=O)[nH]2)CCN(C)C4)cc(C)c1OCc1cccc(C(=O)NO)c1 , system Protein deacetylase HDAC6 (Homo sapiens)?
Ans: 6.11

Q: What value of pIC50 on Protein deacetylase HDAC6 (Homo sapiens) does Nc1ccc(C(=O)NO)cc1 have?
Ans: 5.86

Q: Form: Entry = CN1C(=O)C2CN(Cc3c2c2ccccc2n3Cc2ccc(C(=O)NO)cc2)C1=O (stereo not given) | System = Protein deacetylase HDAC6 (Homo sapiens) | pIC50 = ____
Ans: 9.15

Q: Recorded pIC50 for Nc1ccc(-c2cn(Cc3ccc(C(=O)NO)cc3)c(=O)c(N3CCOCC3)n2)cn1 with Protein deacetylase HDAC6 (Homo sapiens), please?
Ans: 7.92

Q: Please tell me: pIC50 of COc1ccc(C(=O)c2ccc3c(ccn3S(=O)(=O)c3cccc(/C=C/C(=O)NO)c3)c2)cc1 , system Protein deacetylase HDAC6 (Homo sapiens)?
Ans: 6.12

----------
# Study Target: Protein deacetylase HDAC6 (Homo sapiens, UniProt Q9UBN7)
# Sequence (Q9UBN7 whole entry): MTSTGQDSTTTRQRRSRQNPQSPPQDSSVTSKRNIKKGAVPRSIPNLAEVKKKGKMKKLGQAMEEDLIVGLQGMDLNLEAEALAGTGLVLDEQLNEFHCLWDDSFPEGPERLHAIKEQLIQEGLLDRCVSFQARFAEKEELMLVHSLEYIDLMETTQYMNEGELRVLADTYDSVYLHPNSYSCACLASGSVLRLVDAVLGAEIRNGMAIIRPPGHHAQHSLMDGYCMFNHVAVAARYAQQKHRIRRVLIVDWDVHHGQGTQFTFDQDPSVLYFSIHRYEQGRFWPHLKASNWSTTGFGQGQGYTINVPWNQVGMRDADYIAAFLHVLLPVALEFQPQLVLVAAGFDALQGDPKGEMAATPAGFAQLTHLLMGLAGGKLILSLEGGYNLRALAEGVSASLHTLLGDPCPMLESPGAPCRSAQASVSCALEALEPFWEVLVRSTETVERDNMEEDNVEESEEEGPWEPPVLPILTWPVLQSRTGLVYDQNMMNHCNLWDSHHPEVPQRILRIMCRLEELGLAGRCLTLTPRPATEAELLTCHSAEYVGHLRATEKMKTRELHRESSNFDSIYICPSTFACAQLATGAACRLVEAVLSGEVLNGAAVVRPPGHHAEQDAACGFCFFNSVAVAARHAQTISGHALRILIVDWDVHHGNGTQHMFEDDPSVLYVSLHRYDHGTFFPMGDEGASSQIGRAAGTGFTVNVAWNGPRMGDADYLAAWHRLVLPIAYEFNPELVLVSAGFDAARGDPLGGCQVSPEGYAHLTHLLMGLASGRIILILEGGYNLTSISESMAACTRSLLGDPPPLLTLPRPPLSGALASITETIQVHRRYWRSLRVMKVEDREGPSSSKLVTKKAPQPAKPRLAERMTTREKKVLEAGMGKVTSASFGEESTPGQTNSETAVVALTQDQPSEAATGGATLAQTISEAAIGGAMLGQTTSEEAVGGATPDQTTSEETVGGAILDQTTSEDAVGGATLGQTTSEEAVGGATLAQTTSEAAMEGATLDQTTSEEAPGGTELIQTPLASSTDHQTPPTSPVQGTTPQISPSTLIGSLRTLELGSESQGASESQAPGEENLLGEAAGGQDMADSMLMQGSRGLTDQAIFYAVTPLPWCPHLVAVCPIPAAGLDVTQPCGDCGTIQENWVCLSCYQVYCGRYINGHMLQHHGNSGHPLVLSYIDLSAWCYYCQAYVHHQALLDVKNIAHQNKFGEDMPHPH
Below, pIC50 values reported for Protein deacetylase HDAC6 (Homo sapiens, UniProt Q9UBN7) across several publications.
In plain terms, pIC50 is the concentration in mol/L turned into minus its base-10 logarithm.

Q: Entry O=C(CCCCCCn1cc(Nc2ncc3ccn(-c4ccc(Br)cc4)c3n2)cn1)NO : reported pIC50 = ?
Ans: 7.69

Q: What does the data say about its pIC50? Entry: O=C(NO)C1=CCCCC1
Ans: 7.92

Q: Find the recorded pIC50 belonging to COc1cc(Nc2ncnc3ccc(-c4cn(CCCCCCC(=O)NO)nn4)cc23)ccc1Oc1ccccc1 and report it.
Ans: 7.80

Q: Requested field: pIC50. Item: O=C(NO)c1ccc(CN2C(=O)NC(Cc3ccc(Cl)cc3)(c3ccccc3)C2=O)cc1 (racemic)
Ans: 7.27

Q: # query: pIC50 of entry O=C1/C(=C/c2ccc(O)cc2)Oc2ccccc21
Ans: 3.87

Q: Fill blank: measured pIC50 of the compound O=C(NO)c1ccc(CN2C(=O)CNC(=O)[C@H]2Cc2c[nH]c3ccccc23)cc1 is ____.
Ans: 6.96

Q: // returns reported pIC50 for input O=C(CCCCCCNC(=O)c1ccc2c(c1)CCC(=O)N2)NO
Ans: 6.37

Q: Suppose we examine the compound O=C(NO)c1ccc(CC(=O)N2CCC3(CC2)CN(Cc2ccccc2)c2ccccc23)cc1 ; what pIC50 value has been reported?
Ans: 6.64

Q: What pIC50 value was documented for this compound, O=C(NO)c1ccc(CN2CCN(C(=O)c3cc(Cc4n[nH]c(=O)c5ccccc45)ccc3F)CC2)cc1 ?
Ans: 7.78

Q: Reported pIC50 for O=C(CCCCCCn1cc(Nc2ncc3ccn(CC4CCCCC4)c3n2)cn1)NO : what is it?
Ans: 7.06

Q: Recorded pIC50 of O=C(CCCCOCc1cc(-c2ccccc2)on1)NO , please.
Ans: 7.31

Q: For the compound shown here, COc1ccc(Oc2ccc3nc(/C=C/C(=O)NO)ccc3c2)cc1 , give the reported pIC50.
Ans: 7.68

Q: Please report the recorded pIC50 for O=C(NO)c1ccc(/C=C/c2cccc(-c3ccccc3O)c2)cc1 .
Ans: 6.74

Q: Tell me the measured pIC50 of Cn1cc(-c2ccccc2Oc2ccccc2)c2cc(C(=O)NCc3ccc(C(=O)NO)cc3)[nH]c2c1=O , please.
Ans: 7.82

Q: Value lookup for pIC50; key = COc1cc2nc(-c3ccc(C)o3)cc(NCC3CCN(c4ccc(C(=O)NO)cn4)CC3)c2cc1OC
Ans: 6.33

Q: Looking for the measured pIC50 of O=C(/C=C/c1ccc2c(c1)C(=O)CC1(CCN(Cc3ccccc3)CC1)O2)NO , can you help?
Ans: 6.99

Q: Quick one: pIC50 for O=C(NO)c1ccc(CN2CCCc3ccccc3C2)cc1 ?
Ans: 7.00

Q: Returns the measured pIC50 for the input compound. Input: O=C(CCCn1cc(-c2ncnc3[nH]ccc23)cn1)NO
Ans: 6.22

Q: Which pIC50 is reported for this compound? COc1ccc(N(C)c2nc(C)nc3ccccc23)cc1OCCCCCC(=O)NO
Ans: 7.64

Q: For the compound O=C(/C=C/c1ccc(CCNC(=O)c2ccc3[nH]cnc3c2)cc1)NO , what pIC50 is on record?
Ans: 8.33

Q: Name the reported pIC50 value associated with the compound COC(=O)Cc1c(C)n(Cc2ccc(-c3cn(CCCCCCC(=O)NO)nn3)cc2)c2ccc(OC)cc12
Ans: 8.00

Q: Dear colleague, I am looking for the recorded pIC50 of the following compound: O=C(/C=C/c1ccc(C(=O)NO)cc1)N[C@@H](Cc1c[nH]c2ccccc12)C(=O)Nc1ccc(Cl)cc1
Ans: 7.90

Q: // returns reported pIC50 for input Nc1nc2ncc(CNc3ccc(C(=O)N[C@@H](CCC(=O)NCCCCCCCCC(=O)NO)C(=O)O)cc3)nc2c(=O)[nH]1
Ans: 6.75

Q: Suppose we examine the compound O=C(NO)c1ccc(CN2N=CC=C3Sc4ccccc4N=C32)cc1 ; what pIC50 value has been reported?
Ans: 7.72

Q: Given the entry O=C(NO)c1ccc(Cc2nnc(-c3ccccc3)s2)cc1 , report its measured pIC50.
Ans: 7.80

Q: Given the entry Cc1ccc(-c2csc(NC(=O)CCCCCCS)n2)cc1F , report its measured pIC50.
Ans: 5.21

Q: Param item = O=C(CCCCCn1cc(Nc2ncc3ccn(Cc4cccc(Cl)c4)c3n2)cn1)NO ; retrieve measured pIC50.
Ans: 7.46

Q: Entry O=C(NO)c1cccc(S(=O)(=O)N[C@@H](Cc2c[nH]c3ccccc23)C(=O)Nc2ccccc2)c1 has what pIC50?
Ans: 5.23

Q: Which pIC50 is reported for this compound? O=C1CC[C@@H](C(=O)N[C@H](CCCCCS)C(=O)Nc2ccccc2)N1
Ans: 8.52

Q: What measured pIC50 goes with CC1(C)CC(=O)Nc2ccc(C(=O)NC[C@H]3CC[C@@H](CCC(=O)NO)CC3)cc21 ?
Ans: 6.28

Q: // pIC50 lookup, key: CC[C@H]1OC(=O)[C@H](C)C(=O)[C@H](C)[C@@H](O[C@@H]2O[C@H](C)C[C@H](N(C)Cc3ccc(-c4cn(CCCCCC(=O)NO)nn4)cc3)[C@H]2O)[C@](C)(OC)C[C@@H](C)C2=NCCN3C(=O)O[C@@]1(C)[C@H]3[C@H]2C
Ans: 5.93

Q: Given C[C@@H](NCc1ccc(C(=O)C(F)(F)F)s1)c1ccccc1 , state its recorded pIC50.
Ans: 6.08
